target: T1, human SIRPA v1 on BWZ cells (BWZ-huSIRPA) (human, UniProt P78324 31-504)
T1 construct: also called BWZ cells overexpressing human SIRPA; BWZ-huSIRPA v1 cells
T1 sequence (P78324 31-504): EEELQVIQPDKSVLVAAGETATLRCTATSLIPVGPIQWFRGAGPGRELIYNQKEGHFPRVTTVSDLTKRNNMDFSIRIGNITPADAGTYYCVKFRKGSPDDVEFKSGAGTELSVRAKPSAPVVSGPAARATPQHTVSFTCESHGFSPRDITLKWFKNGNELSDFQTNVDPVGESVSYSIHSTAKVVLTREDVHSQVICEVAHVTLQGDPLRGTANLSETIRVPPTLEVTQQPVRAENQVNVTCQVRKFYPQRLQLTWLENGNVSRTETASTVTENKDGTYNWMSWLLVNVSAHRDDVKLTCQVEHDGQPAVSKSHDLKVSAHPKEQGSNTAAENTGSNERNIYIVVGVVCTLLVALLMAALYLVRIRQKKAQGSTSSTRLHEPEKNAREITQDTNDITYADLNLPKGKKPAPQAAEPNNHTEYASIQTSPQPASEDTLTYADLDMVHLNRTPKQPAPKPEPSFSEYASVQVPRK
assay overview: flow cytometry titration on BWZ-huSIRPA cells, 4 C
reported property: EC50 (nM)
# value in nM; strip the unit string

Examples with their reported EC50 follow.
binder: 3F9-18 (antibody, human IgG1, V domains shown, also called mAb 3F9-18) VH: EVQLLESGGGLVQPGGSLRLSCAASGFTFSSYAMSWVRQAPGKGLEWVATISEYGGSYTYYAESVKGRFTISRDNSKNTLYLQMNSLRAEDTAVYYCARPPYDDYYGGFQYWGQGTLVTVSS VL: DIQLTQSPSSLSASVGDRVTITCRASKSVSSGGYSYMHWYQQKPGKAPKLLIYLASNLESGVPSRFSGSGSGTDFTLTISSVQPEDFATYYCQHNRELPSTFGQGTKLEIK
unit abbrev: nM
EC50: 0.51

binder: 3F9-20 (antibody, human IgG1, V domains shown, also called mAb 3F9-20) VH: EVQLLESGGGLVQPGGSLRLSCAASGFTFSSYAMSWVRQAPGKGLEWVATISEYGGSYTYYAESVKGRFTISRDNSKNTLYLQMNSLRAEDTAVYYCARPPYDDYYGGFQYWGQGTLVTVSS VL: DIQLTQSPSSLSASVGDRVTITCRASKSVSSGGYSYMHWYQQKPGKAPKLLIYLASNLESGVPSRFSGSGSGTDFTLTISSVQPEDFATYYCQHNRELPPTFGQGTKLEIK
unit abbrev: nM
EC50: 0.49

--- query ---
Reported EC50 for mouse anti-SIRPA antibody m3F9 (antibody, mouse IgG1, V domains shown, hybridoma-derived murine IgG1; also called Parental m3F9 IgG1; 3F9 mIgG1) VH: EVKLVESGGGLVKPGGSLKLSCAASGFTFSSYAMSWVRQTPEKRLEWVATISDYGGSYTYYPDSVKGRFTISRDNAKYTLYLQMSSLRSEDTALYYCARPPYDDYYGGFAYWGQGTLVTVSA VL: DIVLTQSPASLAVSLGQRATISCRASKSVSSSGYSYMHWYQQKPGQPPKLLIYLASNLESGVPARFSGSGSGTDFTLNIHPVEEEDAATYYCQHNRELPCTFGGGTKLEIK was 0.72
